# TEST_SUMMARY: Synchrotron radiation circular dichroism, alpha-helical content (Bestsel)
# Assay type: physicochemical
# TEST_PARAMETERS: buffer A, 25 °C, far-UV SRCD
Each entry below carries its reported alpha-helical content, Solution.
Quick reminder: number only, in %, skip the unit.

Worked set:
# SUBSTANCE, alpha-helical content, Solution (%)
data = [
    ("Ac-ASAHWGQRAAQGAQAVAAAQRAVSAAALMTQ-NH2 [P454 L463A-L475A-H477S-I479A]", 4),
    ("Ac-ASAHWGQRALQGAQAVAAAQRLVHAAALMTQ-NH2 [P454 I479A]", 8),
    ("Ac-ASAHWGQRALQGAQAVAAAQRAVSAAALMTQ-NH2 [P454 L475A-H477S-I479A]", 6),
]

Now for another entry.
What does the record list as alpha-helical content, Solution for Ac-ASAHWGQRALQGAQAVAAAQRLVSAAALMTQ-NH2 [P454 H477S-I479A] ?
2

----------
Each entry below carries its reported Partition coefficient KX.
# TEST_SUMMARY: Peptide titrations by SUVs followed by tryptophan fluorescence (solution-to-membrane partition)
# Assay type: physicochemical
# TEST_PARAMETERS: POPC:POPG 8:2 SUVs, buffer A pH 7.4, 25 °C, tryptophan fluorescence ratio 330/370 nm; S.D. within ± 10%

Worked set:
# SUBSTANCE, Partition coefficient KX
measured = [
    ("Ac-ASAHWGQRALQGAQAVAAAQRLVSAIALMTQ-NH2 [P454 H477S]", "340 ×10^3"),
    ("Ac-ASAHWGQRALQGAQAVAAAQRLVHAIAAMTQ-NH2 [P454 L481A]", "780 ×10^3"),
    ("Ac-ASAHWGQRALQGAQAVAAAQQLVHAIALMTQ-NH2 [P454 R2Q]", "150 ×10^3"),
    ("Ac-ASAHWGQRALQGAQAVAAAQRAVHAIALMTQ-NH2 [P454 L475A]", "350 ×10^3"),
    ("Ac-ASAHAGQRALQGAQAVAAAQRLVHAAALMTQ-NH2 [P454 W458A-I479A]", "4.2 ×10^3"),
]

What does the record list as Partition coefficient KX for Ac-ASAHWGQRAAQGAQAVAAAQRAVSAAALMTQ-NH2 [P454 L463A-L475A-H477S-I479A] ?
35 ×10^3

What does the record list as Partition coefficient KX for Ac-ASAHWGQRALQGAQAVAAAQRAVSAAALMTQ-NH2 [P454 L475A-H477S-I479A] ?
18 ×10^3

What does the record list as Partition coefficient KX for Ac-ASAHWGQRAAQGAQAVAAAQRLVHAIALMTQ-NH2 [P454 L463A] ?
630 ×10^3

What does the record list as Partition coefficient KX for Ac-ASAHWGQEALQGAQAVAAAQELVHAIALMTQ-NH2 [P454 R12E] ?
80 ×10^3

----------
# TEST_SUMMARY: Synchrotron radiation circular dichroism, alpha-helical content (Bestsel)
# Assay type: physicochemical
# TEST_PARAMETERS: buffer A, 25 °C, far-UV SRCD
Each entry below carries its reported alpha-helical content, Solution.
Quick reminder: number only, in %, skip the unit.

Worked set:
# SUBSTANCE, alpha-helical content, Solution [%]
data = [
    ("Ac-ASAHWGQRALQGAQAVAAAQRLVHALALMTQ-NH2 [P454 I479L]", 13),
    ("Ac-ASAHAGQRAAQGAQAVAAAQRLVHAIALMTQ-NH2 [P454 W458A-L463A]", 7),
    ("Ac-ASAHWGQQALQGAQAVAAAQQLVHAIALMTQ-NH2 [P454 R12Q]", 8),
    ("Ac-ASAHWGQRAAQGAQAVAAAQRLVHAIALMTQ-NH2 [P454 L463A]", 14),
]

Now for another entry.
What does the record list as alpha-helical content, Solution for Ac-ASAHWGQRALQGAQAVAAAQRAVHAIALMTQ-NH2 [P454 L475A] ?
5

----------
# TEST_SUMMARY: Peptide titrations by SUVs followed by tryptophan fluorescence (solution-to-membrane partition)
# Type: physicochemical
# TEST_PARAMETERS: ∆GKx = -RT Ln Kx; S.D. within ± 10%
# Description: Lipid vesicles preparation Small unilamellar vesicles (SUVs) and large unilamellar vesicles (LUVs) were prepared with POPC and POPG at a molar ratio of 8:2, at a lipid concentration of 10 mM in buffer A, as previously described 1. […] The hydrodynamic diameters and mean net charge of the vesicles were measured by dynamic light scattering (DLS) and electrophoretic mobility, respectively, using a ZetaSizer NanoZS (Malvern Pananalytical , Orsay, France) 11. […]
PROPERTY_NAME: ∆GKx for POPC POPG 8:2 (kcal/mol)
Quick reminder: number only, in kcal/mol, skip the unit.

Worked set:
# SUBSTANCE, RESULT_UNITS, RESULT
rows = [
    ("Ac-ASAHWGQRALQGAQAVAAAQRLVHAIAAMTQ-NH2 [P454 L481A]", "kcal/mol", -8),
    ("Ac-ASAHWGQRALQGAQAVAAAQRLVHAVALMTQ-NH2 [P454 I479V]", "kcal/mol", -7.8),
    ("Ac-ASAHWGQQALQGAQAVAAAQQLVHAIALMTQ-NH2 [P454 R12Q]", "kcal/mol", -6.6),
    ("Ac-ASAHWGQRALQGAQAVAAAQRAVSAAALMTQ-NH2 [P454 L475A-H477S-I479A]", "kcal/mol", -5.8),
]

What does the record list as ∆GKx for POPC POPG 8:2 for Ac-ASAHWGQRAAQGAQAVAAAQRLVHAIALMTQ-NH2 [P454 L463A] ?
-7.9

What does the record list as ∆GKx for POPC POPG 8:2 for Ac-ASAHAGQRAAQGAQAVAAAQRLVHAIALMTQ-NH2 [P454 W458A-L463A] ?
-5.9

What does the record list as ∆GKx for POPC POPG 8:2 for Ac-ASAHWGQRALQGAQAVAAAQRLVHALALMTQ-NH2 [P454 I479L] ?
-7.9

What does the record list as ∆GKx for POPC POPG 8:2 for Ac-ASAHWGQRALQGAQAVAAAQRAVHAIALMTQ-NH2 [P454 L475A] ?
-7.7

What does the record list as ∆GKx for POPC POPG 8:2 for Ac-ASAHAGQRALQGAQAVAAAQRLVHAAALMTQ-NH2 [P454 W458A-I479A] ?
-4.9

----------
# TGT: calmodulin (CaM) (Homo sapiens, UniProt P0DP23)
# Construct: made in house; host or cells: E. coli
# TEST_SUMMARY: Peptide titrations by CaM followed by tryptophan fluorescence, and ITC (Kd for CaM)
# Type: binding
# TEST_PARAMETERS: holo-CaM; from fluorescent titrations and ITC; 25 °C; S.D. within ± 10%; average of at least three independent replicates
Each entry below carries its reported pKd.
Remember the convention: pKd equals -log10 of concentration in molar.

# SUBSTANCE, TGT, pKd
measured = [
    ("Ac-ASAHWGQRALQGAQAVAAAQRAVSAAALMTQ-NH2 [P454 L475A-H477S-I479A]", "calmodulin (CaM) (Homo sapiens, UniProt P0DP23)", 5.81),
    ("Ac-ASAHWGQRAAQGAQAVAAAQRLVHAIALMTQ-NH2 [P454 L463A]", "calmodulin (CaM) (Homo sapiens, UniProt P0DP23)", 6.70),
]

Provide the documented pKd with calmodulin (CaM) (Homo sapiens, UniProt P0DP23) as the system for Ac-ASAHWGQRALQGAQAVAAAQRLVSAIALMTQ-NH2 [P454 H477S]
6.72

Provide the documented pKd with calmodulin (CaM) (Homo sapiens, UniProt P0DP23) as the system for Ac-ASAHWGQRALQGAQAVAAAQRLVHAIAAMTQ-NH2 [P454 L481A]
7.05

Provide the documented pKd with calmodulin (CaM) (Homo sapiens, UniProt P0DP23) as the system for Ac-ASAHAGQRALQGAQAVAAAQRLVHAAALMTQ-NH2 [P454 W458A-I479A]
5.69

Provide the documented pKd with calmodulin (CaM) (Homo sapiens, UniProt P0DP23) as the system for Ac-ASAHWGQRALQGAQAVAAAQRLVHALALMTQ-NH2 [P454 I479L]
7.22

Provide the documented pKd with calmodulin (CaM) (Homo sapiens, UniProt P0DP23) as the system for Ac-ASAHAGQRAAQGAQAVAAAQRLVHAIALMTQ-NH2 [P454 W458A-L463A]
6.19

Provide the documented pKd with calmodulin (CaM) (Homo sapiens, UniProt P0DP23) as the system for Ac-ASAHWGQQALQGAQAVAAAQRLVHAIALMTQ-NH2 [P454 R1Q]
7.00

Provide the documented pKd with calmodulin (CaM) (Homo sapiens, UniProt P0DP23) as the system for Ac-ASAHWGQRALQGAQAVAAAQRAVHAIALMTQ-NH2 [P454 L475A]
6.92

Provide the documented pKd with calmodulin (CaM) (Homo sapiens, UniProt P0DP23) as the system for Ac-ASAHWGQRALQGAQAVAAAQRLVSAAALMTQ-NH2 [P454 H477S-I479A]
5.92

Provide the documented pKd with calmodulin (CaM) (Homo sapiens, UniProt P0DP23) as the system for Ac-ASAHWGQKALQGAQAVAAAQKLVHAIALMTQ-NH2 [P454 R12K]
7.30

Provide the documented pKd with calmodulin (CaM) (Homo sapiens, UniProt P0DP23) as the system for Ac-ASAHWGQRALQGAQAVAAAQRLVHAVALMTQ-NH2 [P454 I479V]
6.96

Provide the documented pKd with calmodulin (CaM) (Homo sapiens, UniProt P0DP23) as the system for Ac-ASAHWGQRALQGAQAVAAAQQLVHAIALMTQ-NH2 [P454 R2Q]
6.74

Provide the documented pKd with calmodulin (CaM) (Homo sapiens, UniProt P0DP23) as the system for Ac-ASAHWGQQALQGAQAVAAAQQLVHAIALMTQ-NH2 [P454 R12Q]
5.68
